target: Ba/F3 BCR-FGFR1 (Homo sapiens, UniProt P11362); construct: BCR (fusion partner); host or cells: Ba/F3; the other entry of the earlier key: BCR (P11274, Breakpoint cluster region protein); assay: Ba/F3 cell viability assay (CellTiter-Glo 2.0); format: cell-based; details: Ba/F3 cell data, BCR-FGFR1 fusion, 48 hours
Sequence (P11362 478-767 limits assumed): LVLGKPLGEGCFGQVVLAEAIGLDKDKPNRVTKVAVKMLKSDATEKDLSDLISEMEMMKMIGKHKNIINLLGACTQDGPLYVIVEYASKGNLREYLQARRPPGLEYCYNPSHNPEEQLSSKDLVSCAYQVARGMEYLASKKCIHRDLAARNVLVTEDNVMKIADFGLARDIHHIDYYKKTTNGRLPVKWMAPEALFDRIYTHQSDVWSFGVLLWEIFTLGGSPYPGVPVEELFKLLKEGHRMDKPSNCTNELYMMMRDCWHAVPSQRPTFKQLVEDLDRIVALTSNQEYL
measure-name: Kd

Worked set:
C=CC(=O)N1CCC2(CC1)CC(n1ncc(-c3cc(OC(CO)c4cncc5ccccc45)c4c(C#N)cnn4c3)c1C)C2 (stereo not shown): 100 to 250 nM
COC1(C(=O)N2CCC(n3nnc(-c4cc(OC(CO)c5ccccn5)c5c(C#N)cnn5c4)c3C)CC2)CN(C(=O)/C=C/CN(C)C)C1 (stereo not shown): ≥ 1000 nM

Report Kd for every entry below.
1. C=CC(=O)N1CCC2(CC1)CC(n1ncc(-c3cc(O[C@H](CO)c4ccc(F)cn4)c4c(C#N)cnn4c3)c1C)C2
2. C=CC(=O)N1CCC(n2ncc(-c3cc(O[C@@H](CO)c4ccc(F)cn4)c4c(C#N)cnn4c3)c2C)CC1

["250 to 1000 nM", "≥ 1000 nM"]
